The measurements presented in this section are drawn from ChEMBL document CHEMBL1141372.

Experiment: Partition coefficient, log P of the compound
Assay type: physicochemical
Conditions: octanol/water; read-out: LogP
MEASURED_PARAMETER: logP
Write the number on its own, no unit after it.

stdin: Determine its reported logP: CO[C@@H](C(=O)O[C@@H]1CC2=C(OC1(C)C)c1ccccc1C(=O)C2=O)c1ccccc1
stdout: 5

stdin: Determine its reported logP: CC1(C)OC2=C(CC1Br)C(=O)c1ccccc1C2=O (stereo unspecified)
stdout: 4.1

stdin: Determine its reported logP: CC1(C)C[C@H](O)C2=C(O1)c1ccccc1C(=O)C2=O
stdout: 2.2

stdin: Determine its reported logP: CC(C)CCC1=C(O)C(=O)C2=C(CCCC2)C1=O
stdout: 4.2

stdin: Determine its reported logP: CCOC1CCC2=C(O1)C(=O)c1ccccc1C2=O (stereo unspecified)
stdout: 2.8

stdin: Determine its reported logP: CC1(C)OC2=C(CC1Br)C(=O)C(=O)c1ccccc12 (stereo unspecified)
stdout: 3.6

stdin: Determine its reported logP: CC(=O)OC1=C(CC(Br)C(C)(C)Br)C(=O)c2ccccc2C1=O (stereo unspecified)
stdout: 5.1

stdin: Determine its reported logP: CC1(C)OC2=C(CC1OC(=O)c1ccc(Br)cc1)C(=O)C(=O)c1ccccc12 (racemic)
stdout: 5.8

stdin: Determine its reported logP: O=C1C2=C(OC(c3ccccc3)C2)C(=O)c2ccccc21 (stereo unspecified)
stdout: 3.7

stdin: Determine its reported logP: COc1cc(C(=O)OC2=C(CC=C(C)C)C(=O)c3ccccc3C2=O)cc(OC)c1OC
stdout: 6.3

stdin: Determine its reported logP: CC(C)(O)C1Cc2c(c3ccccc3c3nccnc23)O1 (stereo unspecified)
stdout: 2.5

---

Test: Partition coefficient, log P of the compound
Type: physicochemical
Settings: octanol/water; read-out: LogP
Each record gets a class by logP: bucket A = under 3, bucket B = from 3 up to 4, bucket C = 4 and over

stdin: Band of CC(=O)OC1=C(CC(O)C(C)(C)O)C(=O)c2ccccc2C1=O (stereo unspecified) ?
stdout: bucket A

stdin: Band of CC1(C)Oc2c(c3nc4c(nc3c3ccccc23)CCCC4)CC1O (stereo unspecified) ?
stdout: bucket C

stdin: Band of CC(=O)OC1=C(CC=C(C)C)C(=O)c2ccccc2C1=O ?
stdout: bucket C

stdin: Band of CC(C)(O)C1Cc2c(O)c([N+](=O)[O-])c3ccccc3c2O1 (stereo unspecified) ?
stdout: bucket A

stdin: Band of Cc1ccc(CC2=C(O)C(=O)c3ccccc3C2=O)o1 ?
stdout: bucket B

stdin: Band of O=C1C2=C(OC(c3ccccc3)CC2)C(=O)c2ccccc21 (stereo unspecified) ?
stdout: bucket C

stdin: Band of CC(C)(O[N+](=O)[O-])C1CC2=C(O1)C(=O)c1ccccc1C2=O (stereo unspecified) ?
stdout: bucket B

stdin: Band of CC1(C)CCc2c(c3ccccc3c3nc4c(nc23)CCCC4)O1 ?
stdout: bucket C

stdin: Band of CC1(C)OC2=C(CC1O)C(=O)c1ccccc1C2=O (stereo unspecified) ?
stdout: bucket A

stdin: Band of COCOC1=C(CCC(C)C)C(=O)c2ccccc2C1=O ?
stdout: bucket C
